- target.of.assay: DRB01*11:01
- conditions: chains peptide; modification not given
endpoint.label: IC50 (nM)
Report as a plain number; the unit nM is understood.

RGHLRIAGHHLGRCDIKDLPKEI [SEQ ID NO 307] has a reported IC50 of 561

Entry source: patent US20220033460A1
